- target or test system: Nucleic Acid
- experimental details: Binding affinity to single stranded RNA by fluorescence spectrometry
- Type: nucleic-acid assay
- conditions used: read-out: Kd(app)
pKd: −log10 of the molar value.
So basically: pKd at 5 or higher? That is fulfilled. Lower than 5? That is not fulfilled.

Illustrative cases are given below, each with its answer.
molecule=O=C1c2ccccc2C(=O)c2c(NCCO)ccc(NCCO)c21 target_or_test_system="Nucleic Acid" qualitative_label=fulfilled
molecule=CN1CCN(CCCN2c3ccccc3Sc3ccc(C(F)(F)F)cc32)CC1 target_or_test_system="Nucleic Acid" qualitative_label=fulfilled
molecule=COc1ccc(NCc2ccc([N+](=O)[O-])s2)cc1OC target_or_test_system="Nucleic Acid" qualitative_label="not fulfilled"

Is it the case that O=[N+]([O-])c1ccc(SCCO)c2ncccc12 has pKd reaching or exceeding 5?
not fulfilled

Also check Cc1cccn2c(=O)c3cc(C(=O)NC(C)c4ccccc4)c(=N)n(CCOCCO)c3nc12 (centres undefined)
fulfilled

---

- target or test system: Nucleic Acid
- experimental details: Destabilization of HIV1 [32P]-labeled SL3 RNA-NCp complex assessed as displacement of NCp from SL3 RNA after 1 hr by electrophoretic gel mobility shift assay
- conditions used: read-out: Ki(app)
property label: pKi
// field semantics: pKi = negative decimal log of concentration (mol/L)

Worked examples follow.
smiles_str=Nc1c(S(=O)(=O)O)cc(Nc2ccc(S(N)(=O)=O)cc2)c2c1C(=O)c1ccccc1C2=O property_label=pKi value_reported=4.70
smiles_str=O=C1Oc2ccccc2C(=O)/C1=C/N1C(=O)N/C(=C\c2ccccc2O)C1=O property_label=pKi value_reported=3.96
smiles_str=O=C1c2ccccc2C(=O)c2c(NCCO)ccc(NCCO)c21 property_label=pKi value_reported=3.70

Which pKi value is on record for O=C1NC(=S)NC(=O)C1=Cc1cn(-c2ccccc2)nc1-c1cc2c(ccc3ccccc32)oc1=O ?
4.40

---

- target or test system: Nucleic Acid
- experimental details: Binding affinity to single stranded RNA by ITC analysis
- Assay type: nucleic-acid assay
- conditions used: read-out: Kd(app)
property label: Kd
Kindly write the number and append the unit.

Which Kd value is on record for Cc1cccn2c(=O)c3cc(C(=O)N4CCN(C)CC4)c(=N)n(CC4CCCO4)c3nc12 (stereo unspecified) ?
280 µM

---

- target or test system: Nucleic Acid
- experimental details: Binding affinity to double stranded RNA by fluorescence spectrometry
- Assay type: nucleic-acid assay
- conditions used: read-out: Kd(app)
property label: Kd

Worked examples follow.
compound=Cc1cccn2c(=O)c3cc(C(=O)NCCN4CCOCC4)c(=N)n(Cc4cccnc4)c3nc12 value_reported="8.3 µM"
compound=O=C1NC(=S)N/C1=C/c1ccc2ccccc2c1 value_reported="12 µM"
compound=O=C1c2ccccc2C(=O)c2c(NCCO)ccc(NCCO)c21 value_reported="3.2 µM"
compound=O=[N+]([O-])c1ccc(SCCO)c2ncccc12 value_reported="> 1110 µM"

Which Kd value is on record for CN1CCN(CCCN2c3ccccc3Sc3ccc(C(F)(F)F)cc32)CC1 ?
2.19 µM

Also check N=C1NC(=O)/C(=C\c2ccc3ccccc3c2)S1
11.2 µM

---

- target or test system: Nucleic Acid
- experimental details: Binding affinity to HIV 1 fluorescein-labeled SL3 RNA by fluorescence spectrometry
- Assay type: nucleic-acid assay, Human immunodeficiency virus 1
- conditions used: read-out: Kd(app)
property label: Kd (µM)
Value expressed in µM; do not type the unit.

molecule=CC1CCN(c2ccc(N)cc2)CC1 target_or_test_system="Nucleic Acid" property_label=Kd scale_unit=µM value_reported=44

Which Kd value is on record for Cc1cccn2c(=O)c3cc(C(=O)N4CCN(C)CC4)c(=N)n(CC4CCCO4)c3nc12 (stereo not drawn) ?
10

Also check O=C1c2ccccc2C(=O)c2c(NCCO)ccc(NCCO)c21
1.1

Also check Cc1cccn2c(=O)c3cc(C(=O)NC(C)c4ccccc4)c(=N)n(CCOCCO)c3nc12 (stereo not drawn)
4.5

Also check O=C(NN=Cc1ccc(Br)cc1)c1cc[n+](Cc2ccccc2)cc1
33
